# Lookup of reported Hit score keyed by entry
- System: SARS-CoV-2
- procedure-details: Antiviral activity against SARS-CoV-2 (USA-WA1/2020 strain) measured by imaging in HRCE cells at MOI 0.4 after 96 hrs (reported as hit score from 0-1 for on-disease vs off-disease activity: scores >0.6 considered hits)
- Assay type: functional, Homo sapiens
Whole data set: some 1,600 compounds, median “Hit score” near 0.13, cut for the highest 2% near 0.46. The entries come from a sample that favours the highest values as a whole.

compound	Hit score
O=C(O)c1cccc(-c2noc(-c3ccccc3F)n2)c1	0.2151
CS(=O)(=O)c1ccc(C(=O)Nc2ccc(Cl)c(-c3ccccn3)c2)c(Cl)c1 [VISMODEGIB]	0.5244
CC(C)OC(=O)CCC/C=C\C[C@@H]1[C@@H](CC[C@@H](O)CCc2ccccc2)[C@H](O)C[C@@H]1O [LATANOPROST]	0.04489
Cc1nccn1CCC(C(N)=O)(c1ccccc1)c1ccccc1 [IMIDAFENACIN]	0.008612
COc1ccc(CN2CCN(C(c3ccc(F)cc3)c3ccc(F)cc3)CC2)c(OC)c1OC [LOMERIZINE]	-0.04979

Would you kindly look at the next entry?
query: Param item = CC(C)NC[C@@H](O)COc1cccc2ccccc12 [DEXPROPRANOLOL] ; retrieve measured Hit score.
result: 0.4686

These measurements were taken from ChEMBL document CHEMBL4303122.
